From: the RNAGym collection of RNA variant scans (doi:10.1093/molbev/msab373)

B1: Azoarcus group I ribozyme (parent)
chain: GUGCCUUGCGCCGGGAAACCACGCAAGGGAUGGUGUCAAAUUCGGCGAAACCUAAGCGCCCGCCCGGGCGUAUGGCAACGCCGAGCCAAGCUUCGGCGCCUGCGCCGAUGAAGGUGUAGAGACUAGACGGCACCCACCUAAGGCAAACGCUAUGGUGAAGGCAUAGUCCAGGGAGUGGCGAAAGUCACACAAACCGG

# Variants of: B1
# ASSAY PROCEDURE: reverse-splicing fitness (ratio to wild type); higher = more active; in vitro selection; Mg2+ level not given
Records here are stratified by reverse-splicing fitness; strata: L = under 0.007, M = from 0.007 up to 0.01, H = 0.01 and over

SEQUENCE CHANGE: A111U A145G C169A U176A
ANSWER LABEL: H
//
SEQUENCE CHANGE: C82A A111U A145C C150A C169A
ANSWER LABEL: M
//
SEQUENCE CHANGE: C82A A111U A120C A145U C150U C169A U176G
ANSWER LABEL: M
//
SEQUENCE CHANGE: A111G A145U C150G C169A U176A
ANSWER LABEL: M
//
SEQUENCE CHANGE: A120U C150U U176C
ANSWER LABEL: H
//
SEQUENCE CHANGE: A111U A120G A145G U176C
ANSWER LABEL: H
//
SEQUENCE CHANGE: C82U A111G A120C A145U C150A U176C
ANSWER LABEL: H
//
SEQUENCE CHANGE: C82U A111C A120U A145C C150A C169G U176C
ANSWER LABEL: L
//
SEQUENCE CHANGE: C82G A145G C169G U176C
ANSWER LABEL: H
//
SEQUENCE CHANGE: C82U A111U A120G A145G C150G C169U U176C
ANSWER LABEL: H
//
SEQUENCE CHANGE: C82G A111C A120C A145U C150A U176G
ANSWER LABEL: L
//
SEQUENCE CHANGE: A111C A120C A145G C150A C169G U176A
ANSWER LABEL: H
//
SEQUENCE CHANGE: C82A A120G A145U C150A C169A U176G
ANSWER LABEL: L
//
SEQUENCE CHANGE: C82A A111C A120U C169U
ANSWER LABEL: L
//
SEQUENCE CHANGE: C169G U176G
ANSWER LABEL: M
//
SEQUENCE CHANGE: C82G A111U A120U A145U C169A U176C
ANSWER LABEL: L
//
SEQUENCE CHANGE: C82G A111C A120U A145G C169U U176A
ANSWER LABEL: L
//
SEQUENCE CHANGE: C82G A111G A120G A145C C169U U176A
ANSWER LABEL: H
//
SEQUENCE CHANGE: A120U A145U U176G
ANSWER LABEL: H
//
SEQUENCE CHANGE: C82G A111U A120G A145G C150U C169U U176A
ANSWER LABEL: H
//
SEQUENCE CHANGE: C82U A111C A145G C150G C169U U176G
ANSWER LABEL: M
//
SEQUENCE CHANGE: C82G A111G A120C A145C C169U U176G
ANSWER LABEL: L
//
SEQUENCE CHANGE: C82U A111C A120G A145C C150G C169G U176A
ANSWER LABEL: M
//
SEQUENCE CHANGE: C82U A111G A145G
ANSWER LABEL: H
//
SEQUENCE CHANGE: C82U A111C A120C C150G C169A U176G
ANSWER LABEL: L
//
SEQUENCE CHANGE: C82U A111C A120C C150G U176G
ANSWER LABEL: L
//
SEQUENCE CHANGE: A120U A145U C150A C169U U176A
ANSWER LABEL: H
//
SEQUENCE CHANGE: A120C A145C C150A C169A U176C
ANSWER LABEL: L
//
SEQUENCE CHANGE: C82A A111U A120U A145C C150G U176C
ANSWER LABEL: L
//
SEQUENCE CHANGE: C82U A120C C150U C169A
ANSWER LABEL: M
//
SEQUENCE CHANGE: C82U A111U A120G A145U C169G U176C
ANSWER LABEL: H
//
SEQUENCE CHANGE: A111C A120C A145C C150U U176G
ANSWER LABEL: H
//
SEQUENCE CHANGE: C82A A120U A145G C150A C169A U176G
ANSWER LABEL: L
//
SEQUENCE CHANGE: A120C A145G C150A U176G
ANSWER LABEL: H
//
SEQUENCE CHANGE: C82A A111U A120U C169G U176C
ANSWER LABEL: L
//
SEQUENCE CHANGE: C82G A111C A120G A145U C169G U176G
ANSWER LABEL: L
//
SEQUENCE CHANGE: A111U A120C A145G C150A C169G
ANSWER LABEL: M
//
SEQUENCE CHANGE: A111U A145U C169A U176C
ANSWER LABEL: H
//
SEQUENCE CHANGE: A111C A145C C150A C169U
ANSWER LABEL: H
//
SEQUENCE CHANGE: A111U A120G A145G C150U C169A U176A
ANSWER LABEL: H
